target: T1, human transferrin receptor (recombinant, for surface plasmon resonance) (human, UniProt P02786 89-760); assay: SPR 25C
T1 construct: also called huTfR; human transferrin receptor-biotinylated
T1 sequence (P02786 89-760 limits assumed): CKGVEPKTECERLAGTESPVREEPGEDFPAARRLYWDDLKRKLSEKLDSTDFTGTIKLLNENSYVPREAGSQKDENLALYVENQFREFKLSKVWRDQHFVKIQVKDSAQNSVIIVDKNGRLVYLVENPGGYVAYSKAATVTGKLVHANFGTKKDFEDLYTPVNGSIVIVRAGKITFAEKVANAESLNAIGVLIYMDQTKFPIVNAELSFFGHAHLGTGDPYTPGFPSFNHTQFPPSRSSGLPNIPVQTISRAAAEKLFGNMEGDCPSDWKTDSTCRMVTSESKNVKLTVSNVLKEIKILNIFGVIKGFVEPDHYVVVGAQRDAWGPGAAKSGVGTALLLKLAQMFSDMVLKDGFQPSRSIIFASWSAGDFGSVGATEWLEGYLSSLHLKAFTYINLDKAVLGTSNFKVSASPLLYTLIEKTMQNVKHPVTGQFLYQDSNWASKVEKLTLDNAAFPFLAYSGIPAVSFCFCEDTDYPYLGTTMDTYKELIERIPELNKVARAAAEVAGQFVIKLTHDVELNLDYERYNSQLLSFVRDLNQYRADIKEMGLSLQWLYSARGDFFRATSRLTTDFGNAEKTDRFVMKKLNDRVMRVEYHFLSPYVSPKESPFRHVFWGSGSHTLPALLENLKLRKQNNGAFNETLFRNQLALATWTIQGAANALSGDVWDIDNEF
Labelling field: enter condition met if recorded koff is less than 0.001 s⁻¹. Enter condition not met if it equals or exceeds that cut-off.

1. 2/99 VH16/VL5 (antibody, V domains shown) VH: QQLQESGPGLVKPSETLSLTCTVSGFSLSSYAMSWVRQPPGKGLEWIGYIWSGGSTDYNPSLKSRVTISVDTSKNQVSLKLSSVTAADTAVYYCARRYGTSYPDYGDANGFDPWGPGTLVTVSS VL: DIQMTQSPSSLSASVGDRVTITCRASQSISSYLSWYQQKPGKAPKLLIYRASTLASGVPSRFSGSGSGTDFTLTISSLQPEDFATYYCQQSYSSSNVDNTFGGGTKVEIK: condition not met
2. 2/99 VH18/VL3 (antibody, V domains shown) VH: QVQLQESGPGLVKPSQTLSLTCTVSGFSLSSYAMSWIRQHPGKGLEWIGYIWSGGSTDYAPSLKSRVTISVDTSKNQFSLKLSSVTAADTAVYYCARRYGTSYPDYGDANGFDPWGQGTLVTVSS VL: AYQMTQSPSSLSASVGDRVTITCRASQSISSYLNWYQQKPGKAPKLLIYRASTLASGVPSRFSGSGSGTDFTLTISSLQPEDFATYYCQQSYSSSNVDNTFGGGTKVEIK: condition not met
3. 2/99 VH8/VL4 (antibody, V domains shown) VH: QQLVETGGGLIQPGGSLRLSCAASGFSLSSYAMSWVRQAPGKGLEWIGYIWSGGSTDYASWAKGRFTISKTSTTLYLQMNSLRAEDTAVYYCARRYGTSYPDYGDANGFDPWGQGTLVTVSS VL: AYQMTQSPSSLSASVGDRVTITCRASQSISSYLSWYQQKPGKAPKLLIYRASTLASGVPSRFSGSGSGTDFTLTISSLQPEDFATYYCQQSYSSSNVDNTFGGGTKVEIK: condition met
4. 2/99 VH11/VL2 (antibody, V domains shown) VH: QQLLESGGGLVQPGGSLRLSCAASGFSLSSYAMSWVRQAPGKGLEWVGYIWSGGSTDYADSVKGRFTISRDNSKNTLYLQMNSLRAEDTAVYYCARRYGTSYPDYGDANGFDPWGQGTLVTVSS VL: DIQMTQSPSSLSASVGDRVTITCRASQSISSYLNWYQQKPGKAPKLLIYRASTLASGVPSRFSGSGSGTDFTLTISSLQPEDFATYYCQQSYSSSNVDNTFGGGTKVEIK: condition not met

Ref: patent US20180291110A1
